# remaining at 30 min, 10 μM listing for each entry below
assayMethodText: Stability assay in rat liver microsomes
Format: in vitro ADME
experimentalParameters: pH 7.4; rat liver microsomes, 30 min incubation, NADPH-regenerating system, 10 μM; read-out: Metabolic Stability (percentage of recovery of the parent compound)
Just the number please, in %, no unit attached.

As a guide, the following entries are already answered.
Cc1cc(=O)oc2cc(OCCCN3CCN(c4ncccc4-c4ccncc4)CC3)ccc12 [Compound 12a]
19
Cn1c(=O)cnn(CCCN2CCN(c3ncccc3-c3ccncc3)CC2)c1=O [Compound 11a]
4
CC1Oc2ccc(OCCCN3CCN(c4ncccc4-c4ccncc4)CC3)cc2NC1=O (stereo not drawn) [Compound 8a]
4
Cn1c(=O)cnn(CCCN2CCN(c3ccc(F)cc3-c3ccc(C#N)cc3)CC2)c1=O [Compound 10a]
5

Task: // lookup remaining at 30 min, 10 μM for Cn1c(=O)cnn(CCCCN2CCN(c3ccc(F)cc3-c3ccc(C#N)cc3)CC2)c1=O [Compound 10b]
Result: 26

----------
assayMethodText: Cytotoxicity in SH-SY5Y cells (MTT assay)
Format: cell-based, human
experimentalParameters: human, SH-SY5Y neuroblastoma cells, MTT, 0.1 to 100 μM, ± S.E.M.
Listed here are compounds together with their documented EC50 at 48 h.
Give the number; µM is assumed, so skip it.

In the examples that follow, each entry is paired with its recorded EC50 at 48 h.
Cc1cc(=O)oc2cc(OCCCCN3CCN(c4ncccc4-c4ccncc4)CC3)ccc12 [Compound 12b]
47.9
Cc1cc(=O)oc2cc(OCCCN3CCN(c4ncccc4-c4ccncc4)CC3)ccc12 [Compound 12a]
35.2
Cn1c(=O)cnn(CCCN2CCN(c3ccc(F)cc3-c3ccc(C#N)cc3)CC2)c1=O [Compound 10a]
28.2

Task: Fill blank: measured EC50 at 48 h of the compound "COc1ccc(-c2cc(F)ccc2N2CCN(CCCCn3ncc(=O)n(C)c3=O)CC2)cc1" is ____.
Result: 51.9

----------
assayMethodText: Stability assay in rat liver microsomes
Type: in vitro ADME
experimentalParameters: pH 7.4; rat liver microsomes, 30 min incubation, NADPH-regenerating system, 10 μM; read-out: Metabolic Stability (percentage of recovery of the parent compound)
Reported remaining at 30 min, 10 μM is given for each of the following compounds.
The figure you give is taken to be in %; do not add the unit.

Please review the following examples before continuing.
Cn1c(=O)cnn(CCCCN2CCN(c3ncccc3-c3ccncc3)CC2)c1=O [Compound 11b]
3
COc1ccc(-c2cc(F)ccc2N2CCN(CCCCn3ncc(=O)n(C)c3=O)CC2)cc1
45

Task: What value of measured remaining at 30 min, 10 μM is listed for Cc1cc(=O)oc2cc(OCCCCN3CCN(c4ncccc4-c4ccncc4)CC3)ccc12 [Compound 12b] ?
Result: 14

Task: Same question, CC1Oc2ccc(OCCCCN3CCN(c4ncccc4-c4ccncc4)CC3)cc2NC1=O (stereo not shown) this time
Result: 14

----------
Parameter 'readout' = Ki; parameter 'system' = dopamine D3 receptor (Homo sapiens).
Sequence (P35462 whole entry): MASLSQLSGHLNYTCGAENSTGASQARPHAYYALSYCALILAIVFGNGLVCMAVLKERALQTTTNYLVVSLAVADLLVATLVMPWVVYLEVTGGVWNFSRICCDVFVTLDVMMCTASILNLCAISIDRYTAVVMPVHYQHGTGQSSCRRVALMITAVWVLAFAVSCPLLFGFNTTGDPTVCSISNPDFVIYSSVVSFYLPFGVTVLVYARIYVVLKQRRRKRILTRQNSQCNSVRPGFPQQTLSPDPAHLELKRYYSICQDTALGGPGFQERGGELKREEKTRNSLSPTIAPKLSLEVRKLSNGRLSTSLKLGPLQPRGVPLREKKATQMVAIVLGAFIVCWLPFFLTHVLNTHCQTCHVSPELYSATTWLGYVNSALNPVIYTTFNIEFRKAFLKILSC
Number in µM, nothing else.

Cc1cc(=O)oc2cc(OCCCN3CCN(c4ncccc4-c4ccncc4)CC3)ccc12 [Compound 12a]
1.07

Task: Requested field: Ki. Item: Cc1cc(=O)oc2cc(OCCCCN3CCN(c4ncccc4-c4ccncc4)CC3)ccc12 [Compound 12b]
Result: 0.424

Task: Now this one: CC1Oc2ccc(OCCCN3CCN(c4ncccc4-c4ccncc4)CC3)cc2NC1=O (stereo not drawn)
Result: 1.22
